- Assayed System: T1, ADI-76362
- T1 construct: anti-CD3 antibody made in CHO cells, captured by anti-human Fc
- T1 sequence (VH, as listed by the source, chain 1 of 2): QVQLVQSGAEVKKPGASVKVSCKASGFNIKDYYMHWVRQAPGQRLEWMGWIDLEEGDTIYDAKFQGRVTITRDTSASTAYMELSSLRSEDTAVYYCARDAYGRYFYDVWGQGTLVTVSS
- T1 sequence (VL, as listed by the source, chain 2 of 2): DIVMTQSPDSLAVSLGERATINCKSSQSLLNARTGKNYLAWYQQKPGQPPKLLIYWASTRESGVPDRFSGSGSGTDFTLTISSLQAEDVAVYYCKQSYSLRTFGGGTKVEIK
- Test Protocol: SPR Carterra avidity, yeast anti-ID
Recorded Metric: log10(Kd) (log10 of the value in nM)
Values below are the log10 of the recorded Kd, with nM as the unit.

Known results for binders:
{"columns": ["Binder", "log10(Kd)"],
 "data": [
  ["ADI-34135 (antibody, V domains shown, anti-ID IgG) VH: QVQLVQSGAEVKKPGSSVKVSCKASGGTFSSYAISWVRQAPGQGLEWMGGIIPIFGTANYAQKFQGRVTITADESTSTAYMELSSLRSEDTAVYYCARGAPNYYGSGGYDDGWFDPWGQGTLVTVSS VL: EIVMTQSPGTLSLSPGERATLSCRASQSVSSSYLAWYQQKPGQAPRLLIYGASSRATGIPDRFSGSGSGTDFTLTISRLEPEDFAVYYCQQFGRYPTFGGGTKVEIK", -0.39],
  ["ADI-34134 IgG (antibody, V domains shown) VH: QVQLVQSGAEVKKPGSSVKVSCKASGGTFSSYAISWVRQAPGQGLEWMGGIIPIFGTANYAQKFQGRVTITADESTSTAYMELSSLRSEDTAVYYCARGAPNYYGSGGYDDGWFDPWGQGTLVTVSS VL: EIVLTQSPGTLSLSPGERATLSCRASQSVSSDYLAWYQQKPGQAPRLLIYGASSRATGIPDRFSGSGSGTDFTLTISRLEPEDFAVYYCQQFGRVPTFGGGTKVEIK", 0.80],
  ["ADI-34137 (antibody, V domains shown, anti-ID IgG) VH: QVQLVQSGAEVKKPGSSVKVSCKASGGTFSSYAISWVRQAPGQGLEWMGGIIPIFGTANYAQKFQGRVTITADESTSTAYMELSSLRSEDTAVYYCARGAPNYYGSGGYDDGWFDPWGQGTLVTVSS VL: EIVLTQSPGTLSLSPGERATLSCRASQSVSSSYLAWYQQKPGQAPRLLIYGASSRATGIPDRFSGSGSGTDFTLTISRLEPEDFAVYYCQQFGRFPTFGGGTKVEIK", -0.66],
  ["ADI-30242 (antibody, V domains shown, anti-ID IgG) VH: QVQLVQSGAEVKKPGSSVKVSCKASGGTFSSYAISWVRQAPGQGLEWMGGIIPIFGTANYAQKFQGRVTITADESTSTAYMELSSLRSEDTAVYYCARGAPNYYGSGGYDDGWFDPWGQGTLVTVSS VL: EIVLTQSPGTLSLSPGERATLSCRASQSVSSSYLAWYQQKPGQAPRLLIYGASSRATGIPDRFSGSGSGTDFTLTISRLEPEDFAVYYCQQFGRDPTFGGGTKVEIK", 1.43]
]}

Next up:
Enquiry: What measured log10(Kd) goes with ADI-34132 (antibody, V domains shown, anti-ID IgG) VH: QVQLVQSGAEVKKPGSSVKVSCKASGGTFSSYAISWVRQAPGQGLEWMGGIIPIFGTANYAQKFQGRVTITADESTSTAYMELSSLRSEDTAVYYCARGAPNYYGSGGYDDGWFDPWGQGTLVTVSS VL: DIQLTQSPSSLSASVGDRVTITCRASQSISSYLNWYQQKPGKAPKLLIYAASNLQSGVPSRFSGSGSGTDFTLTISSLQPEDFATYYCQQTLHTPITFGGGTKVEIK ?
Return: -0.09

Entry source: patent US20250019439A1
